B1: Syntaxin-binding protein 4, residues 493 to 538; numbered along this chain, Q6ZWJ1 (parent)
chain: LDMDCLPYGWEEAYTADGIKYFINHVTQTTSWIHPVMSVLNLSRSE

# Variants of: B1
# protocol: abundance fitness (aPCA) (normalised: wild type 0, dead -1); higher = more abundant; growth selection in yeast, the domain comes from the species named
# setup_conditions: Homo sapiens
Property: abundance fitness; scope: individual variants

// solved cases for abundance fitness follow
S31M; -0.989
I33Y; -0.162
G9K; -0.807

# abundance fitness (variant: L6T ) is -0.737

# abundance fitness (variant: L40T ) is -0.319

# abundance fitness (variant: E46K ) is -0.478

# abundance fitness (variant: H34N ) is -0.141

# abundance fitness (variant: V36F ) is -0.444
